# measurementNotes: melting temperature; melt of duplexes
# appliedConditions: sodium 0.0675 M; strand 1 µM
I'd appreciate it if you could supply Tm values for the items below.

- CGACGTGCCCAATGTGCTG+CAGCACATAATGCACGTCG ((((((((...((((((((+))))))))...)))))))): 47.6 °C
- CGACGTGCCACATGTGCTG+CAGCACATTAAGCACGTCG ((((((((...((((((((+))))))))...)))))))): 48.6 °C
- CGACGTGCTTAATGTGCTG+CAGCACATAATGCACGTCG ((((((((.(.((((((((+)))))))).).)))))))): 51.5 °C

The following substances each have a reported value; give each one's Tm.
1. CGACGTGCGGCATGTGCTG+CAGCACATGCTGCACGTCG ((((((((.((((((((((+)))))))))).))))))))
2. CGACGTGCACCATGTGCTG+CAGCACATCTGGCACGTCG ((((((((...((((((((+))))))))...))))))))
3. CGACGTGCAGTATGTGCTG+CAGCACATAAAGCACGTCG ((((((((..(((((((((+)))))))))..))))))))
4. CGACGTGCTTAATGTGCTG+CAGCACATAGTGCACGTCG ((((((((...((((((((+))))))))...))))))))
5. CGACGTGCGTTATGTGCTG+CAGCACATCGCGCACGTCG (((((((((..((((((((+))))))))..)))))))))
6. CGACGTGCCGGATGTGCTG+CAGCACATCATGCACGTCG ((((((((..(((((((((+)))))))))..))))))))
7. CGACGTGCGTGATGTGCTG+CAGCACATTACGCACGTCG ((((((((((.((((((((+)))))))).))))))))))

[A]
1: 62.7 °C; 2: 43.7 °C; 3: 51.7 °C; 4: 44 °C; 5: 54.6 °C; 6: 54.8 °C; 7: 60.4 °C

Give measured Tm for every item shown.
1. CGACGTGCAGTATGTGCTG+CAGCACATGCCGCACGTCG ((((((((.(.((((((((+)))))))).).))))))))
2. CGACGTGCAGTATGTGCTG+CAGCACATCTAGCACGTCG ((((((((...((((((((+))))))))...))))))))
3. CGACGTGCACAATGTGCTG+CAGCACATTTTGCACGTCG (((((((((.(((((((((+))))))))).)))))))))
4. CGACGTGCAACATGTGCTG+CAGCACATTTCGCACGTCG ((((((((.(.((((((((+)))))))).).))))))))
5. CGACGTGCGCGATGTGCTG+CAGCACATAGAGCACGTCG ((((((((.(.((((((((+)))))))).).))))))))

[A]
1: 52.8 °C; 2: 50.8 °C; 3: 54 °C; 4: 49 °C; 5: 55.8 °C

* * *

Kindly state Tm for each of the entries shown.
# measurementNotes: melting temperature; melt of duplexes
# appliedConditions: sodium 0.0675 M; strand 1 µM
One number for each entry, in °C.

Some substances with known Tm results, for comparison:
- CGACGTGCAAGATGTGCTG+CAGCACATTTGGCACGTCG ((((((((.(.((((((((+)))))))).).)))))))): 52.5
- CGACGTGCTTGATGTGCTG+CAGCACATTACGCACGTCG ((((((((.(.((((((((+)))))))).).)))))))): 50.1
- CGACGTGCGCAATGTGCTG+CAGCACATGCGGCACGTCG ((((((((...((((((((+))))))))...)))))))): 56.3
- CGACGTGCAAAATGTGCTG+CAGCACATGACGCACGTCG ((((((((...((((((((+))))))))...)))))))): 51.4
- CGACGTGCAAAATGTGCTG+CAGCACATGGAGCACGTCG ((((((((...((((((((+))))))))...)))))))): 53.9

Hey, can you go through the list below and give me Tm for every item?
1. CGACGTGCAAAATGTGCTG+CAGCACATTAAGCACGTCG ((((((((..(((((((((+)))))))))..))))))))
2. CGACGTGCATCATGTGCTG+CAGCACATAGAGCACGTCG ((((((((...((((((((+))))))))...))))))))

[A]
1. 52.4
2. 50.1

* * *

Please provide measured Tm for the entries that follow.
# measurementNotes: melting temperature; melt of duplexes
# appliedConditions: sodium 0.0675 M; strand 1 µM
One number for each entry, in °C.

• CGACGTGCCCCATGTGCTG+CAGCACATGTCGCACGTCG ((((((((..(((((((((+)))))))))..)))))))) = 51.2
• CGACGTGCCGCATGTGCTG+CAGCACATCCGGCACGTCG ((((((((((.((((((((+)))))))).)))))))))) = 58.2
• CGACGTGCCCCATGTGCTG+CAGCACATATCGCACGTCG ((((((((...((((((((+))))))))...)))))))) = 45.5

Here is another substance to look at.
[Q] Read off the recorded Tm for CGACGTGCGGCATGTGCTG+CAGCACATCGCGCACGTCG (((((((((..((((((((+))))))))..)))))))))
[A] 55.2

* * *

# measurementNotes: melting temperature; melt of duplexes
# appliedConditions: sodium 0.0675 M; strand 1 µM
measurementType: Tm (°C)
Numbers only, in °C.

- CGACGTGCCCTATGTGCTG+CAGCACATGCCGCACGTCG ((((((((...((((((((+))))))))...)))))))): 47.7
- CGACGTGCGGGATGTGCTG+CAGCACATTAAGCACGTCG ((((((((...((((((((+))))))))...)))))))): 53.9

# per-item lookup of Tm; items listed below
1. CGACGTGCGGAATGTGCTG+CAGCACATTCAGCACGTCG ((((((((.((((((((((+)))))))))).))))))))
2. CGACGTGCCGTATGTGCTG+CAGCACATACGGCACGTCG (((((((((((((((((((+)))))))))))))))))))

[A]
1. 60.2
2. 66.2

* * *

# measurementNotes: melting temperature; melt of duplexes
# appliedConditions: sodium 0.0675 M; strand 1 µM
Please go through the items and note down their Tm.
Answers are plain numbers, in °C.

The examples below pair each entry with its known result.
- CGACGTGCGTAATGTGCTG+CAGCACATCACGCACGTCG ((((((((((.((((((((+)))))))).)))))))))): 58
- CGACGTGCGGAATGTGCTG+CAGCACATCGAGCACGTCG ((((((((...((((((((+))))))))...)))))))): 54.6
- CGACGTGCATGATGTGCTG+CAGCACATACCGCACGTCG ((((((((...((((((((+))))))))...)))))))): 47.5
- CGACGTGCATGATGTGCTG+CAGCACATCATGCACGTCG (((((((((((((((((((+))))))))))))))))))): 63.6
- CGACGTGCTCAATGTGCTG+CAGCACATGTAGCACGTCG (((((((((..((((((((+))))))))..))))))))): 52.8

# batch size: 2; output Tm per entry
1. CGACGTGCTCCATGTGCTG+CAGCACATAATGCACGTCG ((((((((...((((((((+))))))))...))))))))
2. CGACGTGCTAAATGTGCTG+CAGCACATAAAGCACGTCG (((((((((..((((((((+))))))))..)))))))))

[A]
[48.4, 53.1]

* * *

# measurementNotes: melting temperature; melt of duplexes
# appliedConditions: sodium 0.0675 M; strand 1 µM
Kindly supply the reported Tm values for the records listed here.
Numbers only, in °C.

Solved cases (2 shown):
• CGACGTGCGGTATGTGCTG+CAGCACATACAGCACGTCG ((((((((.((((((((((+)))))))))).)))))))) = 59.5
• CGACGTGCTCCATGTGCTG+CAGCACATACTGCACGTCG ((((((((...((((((((+))))))))...)))))))) = 47.4

Batch request: Tm for each of the following substances.
1. CGACGTGCAAGATGTGCTG+CAGCACATGAAGCACGTCG ((((((((...((((((((+))))))))...))))))))
2. CGACGTGCGACATGTGCTG+CAGCACATAGGGCACGTCG ((((((((...((((((((+))))))))...))))))))
3. CGACGTGCCCGATGTGCTG+CAGCACATGTCGCACGTCG ((((((((...((((((((+))))))))...))))))))
4. CGACGTGCTCCATGTGCTG+CAGCACATGCTGCACGTCG ((((((((..(((((((((+)))))))))..))))))))

[A]
52.2
50
48.4
50.8

Give me Tm for each of these substances, listed below.
1. CGACGTGCGTGATGTGCTG+CAGCACATGTTGCACGTCG ((((((((...((((((((+))))))))...))))))))
2. CGACGTGCCCCATGTGCTG+CAGCACATACTGCACGTCG ((((((((...((((((((+))))))))...))))))))
3. CGACGTGCGATATGTGCTG+CAGCACATGTTGCACGTCG ((((((((.(.((((((((+)))))))).).))))))))

[A]
50
45.9
54.6

Provide each entry's Tm from the list below.
1. CGACGTGCGCGATGTGCTG+CAGCACATAGCGCACGTCG ((((((((((.((((((((+)))))))).))))))))))
2. CGACGTGCGATATGTGCTG+CAGCACATCAAGCACGTCG ((((((((...((((((((+))))))))...))))))))
3. CGACGTGCCTGATGTGCTG+CAGCACATGGGGCACGTCG (((((((((..((((((((+))))))))..)))))))))
4. CGACGTGCCCGATGTGCTG+CAGCACATGCGGCACGTCG (((((((((..((((((((+))))))))..)))))))))

[A]
1. 63
2. 52.1
3. 56.4
4. 54.6
